For each entry below, report its IC50 value.
Experimental System: human cathepsin F (Homo sapiens)
Sequence (Q9UBX1 271-484): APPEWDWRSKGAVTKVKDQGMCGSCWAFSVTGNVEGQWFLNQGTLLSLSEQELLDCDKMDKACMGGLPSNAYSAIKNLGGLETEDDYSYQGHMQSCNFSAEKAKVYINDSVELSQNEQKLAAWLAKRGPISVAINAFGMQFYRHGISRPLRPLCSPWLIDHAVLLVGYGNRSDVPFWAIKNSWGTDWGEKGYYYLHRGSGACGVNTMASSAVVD
Protocol Text: Cathepsin F Assay
Assay type: biochemical
Run Conditions: IP from dose response curve; Z-Phe-Arg-AMC substrate, pH 5.5; read-out: hCat F (IP (nM))
Answer in nM, number only, no unit symbol.

Just so you know, measured IC50 for CC(C)(C)N=S1(=O)CCN(c2ccc(-c3cn(-c4ccc(F)cc4)nc3[C@@H]3CCCC[C@H]3C(=O)NC3(C#N)CC3)cc2)CC1 [Example 18] came out at 1290

Given item N#CC1(NC(=O)[C@@H]2CCCC[C@H]2c2nn(-c3ccc(F)cn3)cc2-c2ccc(N3CCS(=N)(=O)CC3)cc2)CC1 [Example 5] , the value recorded as its IC50 is 877

So, N#CC1(NC(=O)[C@@H]2CCCC[C@H]2c2nn(-c3cncc(F)c3)cc2-c2ccc(N3CCS(=O)(=O)CC3)cc2)CC1 [Example 165] ? Its IC50 was 319

Notebook: CC1(C)CCC(C(=O)NC2(C#N)CC2)C(c2nn(-c3ccc(F)cc3)cc2-c2ccc(N3CCS(=O)(=O)CC3)cc2)C1 (single isomer, unassigned) [Example 116] , IC50 read as 1200

Reported IC50 ( N#CC1(NC(=O)[C@@H]2CCCC[C@H]2c2nn(-c3ccc(-n4cccn4)cc3)cc2-c2ccc(N3CCS(=O)(=O)CC3)cc2)CC1 [Example 123] ) = 593

Looking up CC(C)[C@@H](C#N)NC(=O)[C@@H]1CCC(F)(F)C[C@H]1c1nn(-c2ncccc2F)cc1-c1ccc(N2CCS(=N)(=O)CC2)cc1 [Example 35] , I see its IC50 listed as 4890

* * *

Kindly supply the reported IC50 values for the records listed here.
Experimental System: human cathepsin K (UniProt P43236, Y175D/V274L, species not given)
Protocol Text: Cathepsin K Assay
Type: biochemical
Run Conditions: IP from dose response curve; Z-Leu-Arg-AMC substrate, pH 5.5; read-out: hrbCat K (IP (nM))
All answers are understood in nM, so give the number only.

Notebook: `N#CC1(NC(=O)[C@@H]2CCCC[C@H]2c2nn(-c3cncc(F)c3)cc2-c2ccc(N3CCS(=O)(=O)CC3)cc2)CC1` , IC50 read as 0.9

Note to self: IC50 recorded for `N#CC1(NC(=O)[C@@H]2CCCC[C@H]2c2nn3ccccc3c2-c2ccc(N3CCS(=O)(=O)CC3)cc2)CC1` was 9.56

Record `N#CC1(NC(=O)[C@@H]2CCCC[C@H]2c2nn(-c3ccccc3Cl)cc2-c2ccc(N3CCS(=O)(=O)CC3)cc2)CC1` , field IC50: 2.9

The recorded IC50 for `N#CC1(NC(=O)[C@@H]2CCCC[C@H]2c2nn(-c3ccc(F)cc3)cc2-c2ccc(C3CN(C(=O)NCC(F)(F)F)C3)cc2)CC1` is 0.97

The value of IC50 measured for the compound CS(=O)(=O)c1ccc(-c2cn(-c3ccccc3)nc2C2CCC(F)(F)CC2C(=O)NCC#N)cc1 (racemic) turned out to be 0.8

The recorded IC50 for `CC(C)[C@@H](C#N)NC(=O)[C@@H]1CC(F)(F)CC[C@H]1c1nn(-c2ccc(F)cc2)c(CO)c1-c1ccc(N2CCS(=O)(=O)CC2)cc1` is 1.98

Lab note: measured IC50 of `CN=S1(=O)CCN(c2ccc(-c3cn(-c4ncccc4F)nc3[C@@H]3CC(F)(F)CC[C@H]3C(=O)N[C@@H](C)C#N)cc2)CC1` was 5.78

Consider N#CC1(NC(=O)[C@@H]2CC3CC3C[C@H]2c2nn(-c3ccc(Cl)cn3)cc2-c2ccc(N3CCS(=O)(=O)CC3)cc2)CC1 (single isomer, unassigned) [Example 154] . Its measured IC50 is 0.74

// IC50 lookup, compound = `N#CC1(NC(=O)[C@@H]2CCC(F)(F)C[C@H]2c2nn(-c3ccc(F)cn3)cc2-c2ccc(N3CCS(=O)(=O)CC3)cc2)CC1` , result: 2.44

// recorded IC50 for `Cc1ccc(-n2cc(-c3ccc(N4CCS(=O)(=O)CC4)cc3)c([C@@H]3CCCC[C@H]3C(=O)NC3(C#N)CC3)n2)cn1` : 0.66

In plain terms, CC1(C)CCC(C(=O)NC2(C#N)CC2)C(c2nn(-c3ccc(F)cc3)cc2-c2ccc(N3CCS(=O)(=O)CC3)cc2)C1 (single isomer, unassigned) [Example 116] has a documented IC50 of 328

Lab note: CC(C#N)NC(=O)[C@@H]1CCC(F)(F)C[C@H]1c1nn(-c2ccc(F)cn2)cc1-c1ccc(N2CCS(=N)(=O)CC2)cc1 (single isomer, unassigned) [Example 22] gave IC50 of 264
